Target: human ether-à-go-go-related gene (hERG) potassium channel (human)
Sequence (Q12809 whole entry, looked up): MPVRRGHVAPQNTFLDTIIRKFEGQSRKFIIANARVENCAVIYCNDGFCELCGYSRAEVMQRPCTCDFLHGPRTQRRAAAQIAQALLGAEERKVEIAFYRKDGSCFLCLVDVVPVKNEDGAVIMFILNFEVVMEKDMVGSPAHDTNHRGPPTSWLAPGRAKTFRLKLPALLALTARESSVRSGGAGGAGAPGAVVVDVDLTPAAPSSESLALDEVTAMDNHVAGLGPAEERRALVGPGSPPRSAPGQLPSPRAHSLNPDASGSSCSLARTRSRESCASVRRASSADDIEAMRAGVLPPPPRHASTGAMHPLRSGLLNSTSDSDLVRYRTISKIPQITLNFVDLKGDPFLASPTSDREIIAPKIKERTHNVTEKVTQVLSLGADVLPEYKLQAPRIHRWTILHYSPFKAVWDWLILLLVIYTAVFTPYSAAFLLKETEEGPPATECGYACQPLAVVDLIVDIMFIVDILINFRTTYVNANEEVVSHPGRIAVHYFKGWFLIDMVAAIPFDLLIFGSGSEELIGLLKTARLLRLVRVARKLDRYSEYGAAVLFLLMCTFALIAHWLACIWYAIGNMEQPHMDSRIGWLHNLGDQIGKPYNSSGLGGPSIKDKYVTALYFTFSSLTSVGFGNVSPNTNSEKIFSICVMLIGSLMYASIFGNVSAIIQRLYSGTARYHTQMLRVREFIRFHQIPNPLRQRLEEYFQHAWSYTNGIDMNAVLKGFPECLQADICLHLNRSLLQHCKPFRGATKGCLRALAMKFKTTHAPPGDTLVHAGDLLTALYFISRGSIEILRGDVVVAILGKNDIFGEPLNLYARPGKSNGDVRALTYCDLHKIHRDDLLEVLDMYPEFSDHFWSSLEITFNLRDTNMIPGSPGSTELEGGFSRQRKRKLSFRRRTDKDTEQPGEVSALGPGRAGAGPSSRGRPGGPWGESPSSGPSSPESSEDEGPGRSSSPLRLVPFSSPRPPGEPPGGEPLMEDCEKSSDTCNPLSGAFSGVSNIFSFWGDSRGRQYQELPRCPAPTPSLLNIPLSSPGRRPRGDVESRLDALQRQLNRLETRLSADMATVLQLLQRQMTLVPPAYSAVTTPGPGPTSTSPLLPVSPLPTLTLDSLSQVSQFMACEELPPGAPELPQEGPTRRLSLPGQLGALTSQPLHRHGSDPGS
Assay: primary screen, population patch clamp on CHO cells stably expressing hERG; higher = less effect of the substance
Out of some 310,000 compounds screened, about 2,200 (0.71%) showed an effect of 50% or more. Effects have a minus sign here. What follows is part of a selection rich in strong results, with near analogues and random picks from the rest.
parameter: hERG current change (%, negative = inhibition) at 1uM (%)
Kindly answer with a numeric value in %, unit omitted.

input: Write down the reported hERG current change (%, negative = inhibition) at 1uM of CC1(c2nnc(Cc3ccccc3)o2)CC(c2ccccc2[N+](=O)[O-])=NO1 (centres unmarked) , test system: human ether-à-go-go-related gene (hERG) potassium channel (human).
output: 0.886

input: Write down the reported hERG current change (%, negative = inhibition) at 1uM of O=C(CSc1nc2ccccc2c(=O)[nH]1)N1CCN(c2ccccc2)CC1 , test system: human ether-à-go-go-related gene (hERG) potassium channel (human).
output: 12.9

input: Write down the reported hERG current change (%, negative = inhibition) at 1uM of Cc1ccc2nc(-c3ccccc3)nc(SC(C)C(=O)NCc3cccs3)c2c1 (centres unmarked) , test system: human ether-à-go-go-related gene (hERG) potassium channel (human).
output: 16.6

input: Write down the reported hERG current change (%, negative = inhibition) at 1uM of COc1ccc(Oc2nc(SC)nc3ccccc23)cc1 , test system: human ether-à-go-go-related gene (hERG) potassium channel (human).
output: 2.03

input: Write down the reported hERG current change (%, negative = inhibition) at 1uM of Cc1cc(Br)ccc1NC(=O)CN1C(=O)C2CC=CCC2C1=O (centres unmarked) , test system: human ether-à-go-go-related gene (hERG) potassium channel (human).
output: 2.16

input: Write down the reported hERG current change (%, negative = inhibition) at 1uM of COCCNc1nc(SCC(=O)N2CCN(c3ccccc3OC)CC2)nc2ccccc12 , test system: human ether-à-go-go-related gene (hERG) potassium channel (human).
output: -92.9

input: Write down the reported hERG current change (%, negative = inhibition) at 1uM of Cc1ccc(S(=O)(=O)NCCC(=O)NNC(=O)c2ccccc2O)cc1C , test system: human ether-à-go-go-related gene (hERG) potassium channel (human).
output: -9.68

input: Write down the reported hERG current change (%, negative = inhibition) at 1uM of CC(Sc1nc(-c2ccccc2)cc(C(F)(F)F)n1)C(=O)NCc1ccco1 (centres unmarked) , test system: human ether-à-go-go-related gene (hERG) potassium channel (human).
output: 4.96

input: Write down the reported hERG current change (%, negative = inhibition) at 1uM of CSCCC(NC(=O)c1ccccc1)C(=O)NC1CCCC1 (centres unmarked) , test system: human ether-à-go-go-related gene (hERG) potassium channel (human).
output: 4.81

input: Write down the reported hERG current change (%, negative = inhibition) at 1uM of Cc1c(C(=O)N(C)Cc2ccccc2)oc2ccc(S(=O)(=O)N3CCCC3)cc12 , test system: human ether-à-go-go-related gene (hERG) potassium channel (human).
output: -0.449

input: Write down the reported hERG current change (%, negative = inhibition) at 1uM of Cc1ccc(C)c2c(SC(C)C(=O)NCc3ccco3)nc(-c3ccccc3)nc12 (centres unmarked) , test system: human ether-à-go-go-related gene (hERG) potassium channel (human).
output: -71.2

input: Write down the reported hERG current change (%, negative = inhibition) at 1uM of O=C(Nc1ccc(C(F)(F)F)cc1)c1csc(-c2ccncc2)n1 , test system: human ether-à-go-go-related gene (hERG) potassium channel (human).
output: -2.94

input: Write down the reported hERG current change (%, negative = inhibition) at 1uM of O=C(Nc1cccc(C(F)(F)F)c1)c1csc(-c2ccncc2)n1 , test system: human ether-à-go-go-related gene (hERG) potassium channel (human).
output: -82.4

input: Write down the reported hERG current change (%, negative = inhibition) at 1uM of c1ccc(-c2nc(NC3CCCC3)c3ccccc3n2)cc1 , test system: human ether-à-go-go-related gene (hERG) potassium channel (human).
output: 18.4

input: Write down the reported hERG current change (%, negative = inhibition) at 1uM of COc1cccc(CNn2c(-c3cccc(C)c3)nc3ccccc3c2=O)c1 , test system: human ether-à-go-go-related gene (hERG) potassium channel (human).
output: 6.03

input: Write down the reported hERG current change (%, negative = inhibition) at 1uM of COc1ccc(CNn2c(-c3cccc(C)c3)nc3ccccc3c2=O)cc1OC , test system: human ether-à-go-go-related gene (hERG) potassium channel (human).
output: -54.8

input: Write down the reported hERG current change (%, negative = inhibition) at 1uM of Nc1c([N+](=O)[O-])c(=O)sc2ccccc12 , test system: human ether-à-go-go-related gene (hERG) potassium channel (human).
output: 2.09

input: Write down the reported hERG current change (%, negative = inhibition) at 1uM of COc1ccccc1CNn1c(-c2cccc(C)c2)nc2ccccc2c1=O , test system: human ether-à-go-go-related gene (hERG) potassium channel (human).
output: 5.72

input: Write down the reported hERG current change (%, negative = inhibition) at 1uM of COc1cccc2cc(C(=O)C3=C(O)C(=O)N(Cc4ccco4)C3c3cccnc3)oc12 (centres unmarked) , test system: human ether-à-go-go-related gene (hERG) potassium channel (human).
output: -5.76

input: Write down the reported hERG current change (%, negative = inhibition) at 1uM of c1csc(-c2nnc(NC3CCCCC3)c3ccccc23)c1 , test system: human ether-à-go-go-related gene (hERG) potassium channel (human).
output: -40.8
